Experiment: inhibitors of E-selectin induction by TNFa, primary screen, imaging, HUVEC, immunofluorescence, MLSMR starter and 10KST1 sets (AID 487);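 further: signal is fraction of cell area covered by stained E-selectin grains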
Details: HUVEC TNFalpha-induced E-selectin immunofluorescence imaging, at 2 µM
Active and inactive are the calls of the source.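 How the source made its calls: active means visually confirmed hit in the image check and inhibition above 20%; inconclusive means visually confirmed hit but inhibition not above 20%; inactive means no visual hit in the image check.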
Outcomes: active, inactive

{"compound": "COC(=O)Nc1nnc(CCc2ccccc2)s1", "group": "inactive"}
{"compound": "C/C(N)=C(/C#N)C(=O)COC(=O)CCSc1ccccc1", "group": "inactive"}
{"compound": "Cn1c(NCCCO)nc2c1c(=O)n(Cc1ccccc1F)c(=O)n2C", "group": "inactive"}
{"compound": "Nc1c(C(=O)NCc2ccco2)sc2nc(N3CCOCC3)c3c(c12)CCCC3", "group": "inactive"}
{"compound": "CSCCC(NC(=O)c1ccco1)C(=O)O (stereo not drawn)", "group": "inactive"}
{"compound": "c1ccc2c(c1)[nH]c1c(N3CCSCC3)ncnc12", "group": "inactive"}
{"compound": "CCSc1nnc2c(n1)OC=Nc1ccc(Br)cc1-2", "group": "inactive"}
{"compound": "COCCCN1C(=O)C(=O)/C(=C(/O)c2ccc(OCC(C)C)cc2C)C1c1cccnc1 (stereo not drawn)", "group": "inactive"}
{"compound": "CCc1ccccc1OCCCCCNCCO", "group": "inactive"}
{"compound": "COc1ccccc1-c1c(C)oc2c(CN3CCN(C)CC3)c(O)ccc2c1=O", "group": "inactive"}
{"compound": "COc1ccc2cc(C(c3nnnn3C3CCCCC3)N3CCCCCC3)c3nnnn3c2c1 (stereo not drawn)", "group": "inactive"}
{"compound": "O=C(COc1ccc(-c2nnc(N3CCCCC3)c3ccccc23)cc1)N1CCCCC1", "group": "inactive"}
{"compound": "CCSc1nc2c(c(=O)[nH]1)C(c1cccnc1)C(C(=O)OC(C)C)=C(C)N2 (stereo not drawn)", "group": "inactive"}
{"compound": "CC1CCN(c2oc(-c3ccccc3F)nc2C#N)CC1", "group": "inactive"}
{"compound": "Cc1ccc(-c2csc3ncn(-n4c(C)ccc4C)c(=O)c23)o1", "group": "active"}
{"compound": "N#CC1=C(SCC(=O)NC23CC4CC(CC(C4)C2)C3)NC(=O)C(C#N)C12CCCCC2 (stereo not drawn)", "group": "inactive"}
{"compound": "CCCN(CCC)c1nc2ccccc2nc1C(C#N)C(=O)OC(C)COC (stereo not drawn)", "group": "inactive"}
{"compound": "CSC1=N/C(=C\\C=C\\c2cccs2)C(=O)S1", "group": "inactive"}
{"compound": "C=CCn1c2ccccc2c2nnc(SCC(=O)NC(C(=O)OC)C(C)C)nc21 (stereo not drawn)", "group": "inactive"}
{"compound": "O=C1CC(c2ccccc2)Cc2nc(N3CCc4ccccc43)ncc21 (stereo not drawn)", "group": "inactive"}
{"compound": "CC1CCc2nn(CC(=O)NCCN3CCOCC3)cc2C1 (stereo not drawn)", "group": "inactive"}
{"compound": "Cc1cccc(CCNC(=O)C2CCCN(S(=O)(=O)c3cnc[nH]3)C2)c1 (stereo not drawn)", "group": "inactive"}
{"compound": "CC(C)c1nc(N2CCOCC2)c(C#N)c2c1COC(C)(C)C2", "group": "inactive"}
{"compound": "CC(O)CNc1nc2c(c(=O)n(C)c(=O)n2C)n1Cc1cccc(C(F)(F)F)c1 (stereo not drawn)", "group": "inactive"}
{"compound": "Cn1cccc1Cc1nnc(SCC(=O)Nc2ccc(F)cc2F)n1-c1ccc(F)cc1", "group": "inactive"}
{"compound": "Cn1c(=O)c2c(nc(NCc3ccc4c(c3)OCO4)n2Cc2ccccc2Cl)n(C)c1=O", "group": "inactive"}
{"compound": "CSc1cc(C)nc(N(C)C(C)=O)n1", "group": "inactive"}
{"compound": "CCOC(=O)c1sc(NC(=O)CSc2n[nH]c(-c3ccccc3)n2)c(C#N)c1C", "group": "active"}
{"compound": "Cc1ccc(-n2ncc3c(=O)n(CC(=O)NCc4ccco4)cnc32)cc1", "group": "inactive"}
{"compound": "COc1cc(OC)c(C2C(C#N)=C(N)OC3=C2C(=O)CC(C)(C)C3)cc1OC (stereo not drawn)", "group": "inactive"}
{"compound": "CC1(C)Cc2nc3sc4c(N(CCO)CCO)ncnc4c3cc2CO1", "group": "inactive"}
{"compound": "O=S(=O)(Nc1nc2ccccc2nc1NCc1ccco1)c1ccc(Cl)cc1", "group": "inactive"}
{"compound": "O=C(CSc1nnc(-c2ccncc2)o1)Oc1ccccc1", "group": "inactive"}
